Molecular target: T1, extracellular domain of human KLB expressed with C-terminal HA and hexahistidine tags (human, UniProt Q86Z14 1-996)
T1 construct: also called hKLB-HA-6His; hKLB-HA-6his
T1 sequence: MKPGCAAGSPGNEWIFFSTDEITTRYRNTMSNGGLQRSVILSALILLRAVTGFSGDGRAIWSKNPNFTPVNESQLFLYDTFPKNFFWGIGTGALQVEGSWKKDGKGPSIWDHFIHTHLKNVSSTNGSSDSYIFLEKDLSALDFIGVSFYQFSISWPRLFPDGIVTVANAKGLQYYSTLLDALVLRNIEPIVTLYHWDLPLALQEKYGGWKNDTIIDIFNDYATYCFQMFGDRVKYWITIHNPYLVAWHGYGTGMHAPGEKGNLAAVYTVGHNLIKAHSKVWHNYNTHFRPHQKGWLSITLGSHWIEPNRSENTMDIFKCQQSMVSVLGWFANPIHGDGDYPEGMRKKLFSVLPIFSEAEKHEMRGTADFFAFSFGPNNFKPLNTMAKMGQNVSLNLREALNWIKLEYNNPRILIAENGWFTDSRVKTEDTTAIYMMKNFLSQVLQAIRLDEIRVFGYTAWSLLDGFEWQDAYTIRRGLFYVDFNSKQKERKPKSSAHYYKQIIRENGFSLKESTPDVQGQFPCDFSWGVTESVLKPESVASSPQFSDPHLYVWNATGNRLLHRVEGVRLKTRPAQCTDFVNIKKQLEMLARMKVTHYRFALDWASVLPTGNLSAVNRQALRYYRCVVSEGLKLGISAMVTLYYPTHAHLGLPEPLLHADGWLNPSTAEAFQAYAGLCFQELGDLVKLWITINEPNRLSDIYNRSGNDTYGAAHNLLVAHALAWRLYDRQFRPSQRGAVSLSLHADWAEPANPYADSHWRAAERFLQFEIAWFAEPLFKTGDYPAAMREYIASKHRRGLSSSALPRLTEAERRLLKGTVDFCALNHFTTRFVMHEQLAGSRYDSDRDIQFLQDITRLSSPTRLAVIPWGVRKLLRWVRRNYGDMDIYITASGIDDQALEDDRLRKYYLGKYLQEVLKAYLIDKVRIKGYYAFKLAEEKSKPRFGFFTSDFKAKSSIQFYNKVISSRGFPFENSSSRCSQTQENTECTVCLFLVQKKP
Assay: SPR, mAb captured, 25 C
For each of the binders below, state its log10 of kon.
In plain terms, each number is the log10 of measured kon in M⁻¹ s⁻¹.

Use these answered entries as a reference point.
binder="H2aM8092N (antibody, V domains shown, mouse IgG2 Fc (H2aM prefix); also called H2M8092N) VH: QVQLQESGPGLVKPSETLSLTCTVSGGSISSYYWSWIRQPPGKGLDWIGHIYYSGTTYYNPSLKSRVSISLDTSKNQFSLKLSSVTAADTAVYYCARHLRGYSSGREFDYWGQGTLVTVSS VL: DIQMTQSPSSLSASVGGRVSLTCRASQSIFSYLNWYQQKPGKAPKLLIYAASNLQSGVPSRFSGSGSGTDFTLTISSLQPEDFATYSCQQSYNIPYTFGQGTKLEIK" meas_value=5.16
binder="H4H8880P (antibody, V domains shown, human IgG4 Fc (H4H prefix)) VH: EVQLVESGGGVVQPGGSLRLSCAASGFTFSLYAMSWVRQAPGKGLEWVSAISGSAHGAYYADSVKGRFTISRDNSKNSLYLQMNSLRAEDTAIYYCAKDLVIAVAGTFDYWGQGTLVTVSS VL: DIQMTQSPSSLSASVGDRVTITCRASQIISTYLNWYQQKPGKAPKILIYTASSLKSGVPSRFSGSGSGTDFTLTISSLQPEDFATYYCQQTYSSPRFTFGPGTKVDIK" meas_value=5.65
binder="H4H8837P (antibody, V domains shown, human IgG4 Fc (H4H prefix)) VH: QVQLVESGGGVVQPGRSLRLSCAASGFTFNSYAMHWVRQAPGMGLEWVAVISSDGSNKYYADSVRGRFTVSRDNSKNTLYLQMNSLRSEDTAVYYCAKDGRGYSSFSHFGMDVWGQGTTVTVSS VL: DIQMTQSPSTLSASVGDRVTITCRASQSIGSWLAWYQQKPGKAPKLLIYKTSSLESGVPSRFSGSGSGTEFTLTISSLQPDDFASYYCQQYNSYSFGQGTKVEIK" meas_value=5.54

# batch size: 2; output log10 of kon per entry
1. H4H8881P (antibody, V domains shown, human IgG4 Fc (H4H prefix)) VH: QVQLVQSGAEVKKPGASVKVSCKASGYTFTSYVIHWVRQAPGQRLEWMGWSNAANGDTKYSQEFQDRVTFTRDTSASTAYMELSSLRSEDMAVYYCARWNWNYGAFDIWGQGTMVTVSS VL: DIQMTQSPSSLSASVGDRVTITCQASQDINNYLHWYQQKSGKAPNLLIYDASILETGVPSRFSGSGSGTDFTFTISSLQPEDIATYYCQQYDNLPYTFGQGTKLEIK
2. H2aM8093N (antibody, V domains shown, mouse IgG2 Fc (H2aM prefix)) VH: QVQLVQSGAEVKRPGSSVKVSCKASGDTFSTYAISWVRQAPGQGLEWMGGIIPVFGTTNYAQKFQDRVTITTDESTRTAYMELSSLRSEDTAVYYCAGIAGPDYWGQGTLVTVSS VL: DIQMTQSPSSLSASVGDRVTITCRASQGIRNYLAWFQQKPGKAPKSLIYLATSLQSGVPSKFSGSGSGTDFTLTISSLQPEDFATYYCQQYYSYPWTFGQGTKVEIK

1: 6.16; 2: 5.65

# batch size: 2; output log10 of kon per entry
1. H4H8878P (antibody, V domains shown, human IgG4 Fc (H4H prefix)) VH: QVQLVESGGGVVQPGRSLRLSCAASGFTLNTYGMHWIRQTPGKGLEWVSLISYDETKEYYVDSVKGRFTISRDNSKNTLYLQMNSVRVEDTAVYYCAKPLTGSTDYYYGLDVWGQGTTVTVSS VL: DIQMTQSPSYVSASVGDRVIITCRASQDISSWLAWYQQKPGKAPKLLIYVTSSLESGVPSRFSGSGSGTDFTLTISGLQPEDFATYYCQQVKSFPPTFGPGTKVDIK
2. H2aM8109N (antibody, V domains shown, mouse IgG2 Fc (H2aM prefix)) VH: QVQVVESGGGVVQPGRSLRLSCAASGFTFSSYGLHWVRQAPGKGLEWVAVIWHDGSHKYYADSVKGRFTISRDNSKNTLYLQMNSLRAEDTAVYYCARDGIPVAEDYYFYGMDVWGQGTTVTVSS VL: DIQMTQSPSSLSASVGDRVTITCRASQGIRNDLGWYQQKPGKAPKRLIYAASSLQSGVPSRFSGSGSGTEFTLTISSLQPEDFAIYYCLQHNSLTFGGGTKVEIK

[5.23, 5.00]
